Assay: protein stability index of a GFP-peptide fusion (yeast GPS) (PSI 1-4); higher = more stable; sorted into four equal gates, so the index is relative within each strain
Conditions: san1∆
Readout: protein stability index

PQTMEHYKQQIAVLIEL [YCS4]    2.92
KAPKIQRLVTPQRLQRK [RPS6A]    2.91
PSKGQSLSKISQAFDIV [RPP1]    2.96
GEANKHHWEDLQKRVIE [RPN5]    2.93
NPLADAEEALEPSYIFE [PRE4]    3.08
RKSAPVDSWDREFLKVD [SKP1]    3.04
IQLIKILNSHFDALRSL [YJL041W/NSP1]    2.95
EGKRIAFGFVDRTLPHF [RPO21]    2.95

FYI, the data here is from the supplement of paper PMC9732359.
